Attribute: melting point

Check out these entries, answers already filled in.
O=C(Cn1nc(N2CCN(c3ccccc3F)CC2)ccc1=O)NN=Cc1ccc(F)cc1 ... 178 to 180 °C
COc1ccc(C=NNC(=O)Cn2nc(N3CCN(c4ccccc4F)CC3)ccc2=O)cc1 ... 148 to 150 °C
O=C(Cn1nc(N2CCN(c3ccccc3F)CC2)ccc1=O)NN=Cc1cccc(Br)c1 ... 207 to 208 °C
Cc1ccccc1C=NNC(=O)Cn1nc(N2CCN(c3ccccc3F)CC2)ccc1=O ... 244 to 245 °C

Tell me the measured melting point of `O=C(Cn1nc(N2CCN(c3ccccc3F)CC2)ccc1=O)NN=Cc1ccccc1F` , please.
225 to 226 °C

====

Reported IC50 values follow for various molecules
# target or system: MAO-B (Homo sapiens, UniProt P27338)
# procedure text: Recombinant human MAO-B inhibition assay (benzylamine substrate)
Dear colleague, please send the value followed by its unit.

Example cases with answers are listed next.
O=C(Cn1nc(N2CCN(c3ccccc3F)CC2)ccc1=O)NN=Cc1ccc(F)cc1 ... 35.3 µM
O=C(Cn1nc(N2CCN(c3ccccc3F)CC2)ccc1=O)NN=Cc1ccc(Cl)cc1 ... 0.099 µM
O=C(Cn1nc(N2CCN(c3ccccc3F)CC2)ccc1=O)NN=Cc1ccccc1 ... 7.68 µM

Form field: reported IC50 of `COc1ccc(C=NNC(=O)Cn2nc(N3CCN(c4ccccc4F)CC3)ccc2=O)cc1`
6.86 µM

Thanks! And `Cc1ccccc1C=NNC(=O)Cn1nc(N2CCN(c3ccccc3F)CC2)ccc1=O` ?
0.15 µM

// query: `Cc1ccc(C=NNC(=O)Cn2nc(N3CCN(c4ccccc4F)CC3)ccc2=O)cc1`
0.1 µM

====

# target or system: recombinant human MAO-A (Homo sapiens)
# Construct: purchased Sigma-Aldrich
# procedure text: Recombinant human MAO-A inhibition assay (kynuramine substrate)
# Assay type: biochemical
# stated conditions: inhibitor 10 µM; kynuramine 0.06 mM; 15 min preincubation; read-out: Residual Activity (%) MAO-A (10 µM)
Reported remaining activity at 10 µM values follow for various compounds
Respond with the bare value in %.

O=C(Cn1nc(N2CCN(c3ccccc3F)CC2)ccc1=O)NN=Cc1cccc(Br)c1 ... 73.3

recombinant human MAO-A (Homo sapiens) / remaining activity at 10 µM / `O=C(Cn1nc(N2CCN(c3ccccc3F)CC2)ccc1=O)NN=Cc1ccccc1Cl` : value?
24.6

// query: `O=C(Cn1nc(N2CCN(c3ccccc3F)CC2)ccc1=O)NN=Cc1ccc(F)cc1`
33.7

====

# procedure text: MTS cytotoxicity assay in L929 cells
# Assay type: cell-based, mouse
# stated conditions: mouse, L929 cells (mouse fibroblast cell line), 48 h treatment
measured endpoint: IC50 at 48 h

COc1ccccc1C=NNC(=O)Cn1nc(N2CCN(c3ccccc3F)CC2)ccc1=O [Compound T6] ... > 100 µM

Recorded IC50 at 48 h of O=C(Cn1nc(N2CCN(c3ccccc3F)CC2)ccc1=O)NN=Cc1ccccc1Cl [Compound T3] , please.
27.1 µM

====

# target or system: MAO-B (Homo sapiens)
# Sequence (P27338 1-520): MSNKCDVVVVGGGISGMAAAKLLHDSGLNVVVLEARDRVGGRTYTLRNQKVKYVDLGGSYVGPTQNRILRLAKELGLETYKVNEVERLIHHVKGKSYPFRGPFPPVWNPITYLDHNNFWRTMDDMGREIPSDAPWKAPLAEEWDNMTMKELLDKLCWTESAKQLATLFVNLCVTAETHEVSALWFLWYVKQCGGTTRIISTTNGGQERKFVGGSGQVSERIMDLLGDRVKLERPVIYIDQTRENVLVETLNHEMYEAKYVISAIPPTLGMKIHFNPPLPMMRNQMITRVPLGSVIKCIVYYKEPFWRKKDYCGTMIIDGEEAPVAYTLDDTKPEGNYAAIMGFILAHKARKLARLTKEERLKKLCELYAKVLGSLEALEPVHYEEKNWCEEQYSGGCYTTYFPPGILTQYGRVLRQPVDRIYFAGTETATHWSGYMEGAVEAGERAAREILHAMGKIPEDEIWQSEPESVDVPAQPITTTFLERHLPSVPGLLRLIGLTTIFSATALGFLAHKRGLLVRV
# procedure text: Recombinant human MAO-B inhibition assay (benzylamine substrate)
# stated conditions: selectivity index for MAO-B
Lab note: anything with SI (IC50 of MAO-A/IC50 of MAO-B) at or over 40 counts as True; the rest go in False.

Cc1ccc(C=NNC(=O)Cn2nc(N3CCN(c4ccccc4F)CC3)ccc2=O)cc1 ... True
O=C(Cn1nc(N2CCN(c3ccccc3F)CC2)ccc1=O)NN=Cc1ccccc1Cl ... True
COc1ccccc1C=NNC(=O)Cn1nc(N2CCN(c3ccccc3F)CC2)ccc1=O ... True
O=C(Cn1nc(N2CCN(c3ccccc3F)CC2)ccc1=O)NN=Cc1ccc(F)cc1 ... False

Can `O=C(Cn1nc(N2CCN(c3ccccc3F)CC2)ccc1=O)NN=Cc1ccccc1F` be said to have SI (IC50 of MAO-A/IC50 of MAO-B) at or above 40?
False

====

# target or system: recombinant human MAO-A (Homo sapiens)
# Construct: purchased Sigma-Aldrich
# Sequence (P21397 1-527): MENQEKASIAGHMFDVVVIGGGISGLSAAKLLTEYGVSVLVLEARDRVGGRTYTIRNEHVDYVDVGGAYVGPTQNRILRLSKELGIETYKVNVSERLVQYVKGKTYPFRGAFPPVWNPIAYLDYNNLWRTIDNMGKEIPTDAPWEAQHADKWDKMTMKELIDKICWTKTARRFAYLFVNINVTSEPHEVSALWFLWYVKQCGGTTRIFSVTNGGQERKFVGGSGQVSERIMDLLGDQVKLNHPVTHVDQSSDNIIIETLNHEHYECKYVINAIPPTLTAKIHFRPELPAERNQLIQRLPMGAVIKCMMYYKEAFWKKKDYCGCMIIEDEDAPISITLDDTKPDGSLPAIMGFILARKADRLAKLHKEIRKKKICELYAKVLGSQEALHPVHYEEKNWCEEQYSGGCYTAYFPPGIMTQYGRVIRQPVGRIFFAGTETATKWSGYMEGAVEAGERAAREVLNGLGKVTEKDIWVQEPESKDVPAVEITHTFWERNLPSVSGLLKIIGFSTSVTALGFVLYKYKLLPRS
# procedure text: Recombinant human MAO-A inhibition assay (kynuramine substrate)
# Format: biochemical
# stated conditions: kynuramine 0.06 mM; 15 min preincubation
Each record here notes measured IC50.

Consider the following illustrative entries.
O=C(Cn1nc(N2CCN(c3ccccc3F)CC2)ccc1=O)NN=Cc1ccccc1Cl ... 4.19 µM
O=C(Cn1nc(N2CCN(c3ccccc3F)CC2)ccc1=O)NN=Cc1ccc(F)cc1 ... 7.35 µM
CN(C)c1ccc(C=NNC(=O)Cn2nc(N3CCN(c4ccccc4F)CC3)ccc2=O)cc1 ... 4.43 µM
Cc1ccc(C=NNC(=O)Cn2nc(N3CCN(c4ccccc4F)CC3)ccc2=O)cc1 ... 4.29 µM
COc1ccccc1C=NNC(=O)Cn1nc(N2CCN(c3ccccc3F)CC2)ccc1=O ... 1.57 µM

Then this molecule:
Any idea what IC50 was measured for `O=C(Cn1nc(N2CCN(c3ccccc3F)CC2)ccc1=O)NN=Cc1ccccc1F` ?
6.76 µM

====

# target or system: MAO-B (Homo sapiens)
# procedure text: Recombinant human MAO-B inhibition assay (benzylamine substrate)
# if measured IC50 < 200 nM: yes (1)  # else: no (0)

Reference set (3 entries):
O=C(Cn1nc(N2CCN(c3ccccc3F)CC2)ccc1=O)NN=Cc1ccccc1Cl ... yes (1)
CN(C)c1ccc(C=NNC(=O)Cn2nc(N3CCN(c4ccccc4F)CC3)ccc2=O)cc1 ... no (0)
COc1ccccc1C=NNC(=O)Cn1nc(N2CCN(c3ccccc3F)CC2)ccc1=O ... yes (1)

is_below(IC50, 200 nM) for `O=C(Cn1nc(N2CCN(c3ccccc3F)CC2)ccc1=O)NN=Cc1ccc(Br)cc1` ?
no (0)

What do you have for `O=C(Cn1nc(N2CCN(c3ccccc3F)CC2)ccc1=O)NN=Cc1cccc(Br)c1` ?
no (0)

====

Item-by-item account of remaining activity at 10 µM
# target or system: recombinant human MAO-A (Homo sapiens, UniProt P21397)
# Construct: purchased Sigma-Aldrich
# procedure text: Recombinant human MAO-A inhibition assay (kynuramine substrate)
# Type: biochemical
# stated conditions: inhibitor 10 µM; kynuramine 0.06 mM; 15 min preincubation; read-out: Residual Activity (%) MAO-A (10 µM)
State the answer as a number, implicitly in %.

Consider the reported remaining activity at 10 µM for these molecules:
O=C(Cn1nc(N2CCN(c3ccccc3F)CC2)ccc1=O)NN=Cc1ccc(Cl)cc1 ... 75.2
Cc1ccccc1C=NNC(=O)Cn1nc(N2CCN(c3ccccc3F)CC2)ccc1=O ... 61.8
O=C(Cn1nc(N2CCN(c3ccccc3F)CC2)ccc1=O)NN=Cc1ccccc1 ... 96.6

Param readout = remaining activity at 10 µM; param system = recombinant human MAO-A (Homo sapiens, UniProt P21397); param query = `O=C(Cn1nc(N2CCN(c3ccccc3F)CC2)ccc1=O)NN=Cc1ccccc1F` ; response: value
35.2

Item: `Cc1ccc(C=NNC(=O)Cn2nc(N3CCN(c4ccccc4F)CC3)ccc2=O)cc1`
24.6

And what about the molecule `CN(C)c1ccc(C=NNC(=O)Cn2nc(N3CCN(c4ccccc4F)CC3)ccc2=O)cc1` ?
25.4

Now consider `COc1ccccc1C=NNC(=O)Cn1nc(N2CCN(c3ccccc3F)CC2)ccc1=O` .
20.7

Would you mind doing `COc1ccc(C=NNC(=O)Cn2nc(N3CCN(c4ccccc4F)CC3)ccc2=O)cc1` as well?
70.4

Likewise for `O=C(Cn1nc(N2CCN(c3ccccc3F)CC2)ccc1=O)NN=Cc1ccc(Br)cc1` ?
84
